- System: HOP-62 NSCLC
- Experiment summary: NCI tumour cell line growth inhibition, 48 h; in the data active = GI50 below about 0.43 µM; inactive = the rest
Outcomes you can answer with include only these: Y = active, N = inactive

>  <Molecule>
Cc1cc2c(C(=O)NC[C@H](C)c3ccccc3)c(O)c(O)cc2c(O)c1-c1c(C)cc2c(C(=O)NC[C@H](C)c3ccccc3)c(O)c(O)cc2c1O

>  <Tested system>
HOP-62 NSCLC

>  <Class assignment>
Y

$$$$
>  <Molecule>
C=C(c1ccc(OC)c(/C=C/C(=O)c2ccc3c(c2)OCO3)c1)c1cc(OC)c(OC)c(OC)c1

>  <Tested system>
HOP-62 NSCLC

>  <Class assignment>
N

$$$$
>  <Molecule>
O=C(CN(/C=C/C(=O)C(F)(F)F)c1ccc(Cl)cc1)c1ccc(Cl)cc1

>  <Tested system>
HOP-62 NSCLC

>  <Class assignment>
N

$$$$
>  <Molecule>
COc1c/c(=C2\C=c3ccccc3=N2)[nH]/c1=C\c1[nH]c(C)cc1C

>  <Tested system>
HOP-62 NSCLC

>  <Class assignment>
N

$$$$
>  <Molecule>
CC1Cc2c(Cl)ncnc2N(C)c2ccc(Cl)cc21 (centres undefined)

>  <Tested system>
HOP-62 NSCLC

>  <Class assignment>
Y

$$$$

# input Check the results log: what was the call for O=C1NC(=C(Cl)Cl)/C(=N/S(=O)(=O)N2CCCCC2)N1 ?
# output N

# input For CNC(=O)c1ccc(N2C(=S)N(c3cnc(C#N)c(C(F)(F)F)c3)C(=O)C23CCC3)cc1F , which call appears in the assay record?
# output N

# input Dear colleague, could you share the recorded outcome for Cc1nn(CNc2ccccc2C(F)(F)F)c(=S)n1/N=C/c1cccc2cccnc12 when you have a moment?
# output N

# input Please state the recorded outcome for this molecule: CC(C)C[C@H](NC(=O)CNC(=O)c1cc(Cl)ccc1Cl)B(O)O
# output Y

----------
- Tested on: HT29 colon
- Experiment summary: NCI tumour cell line growth inhibition, 48 h; in the data active = GI50 below about 0.43 µM; inactive = the rest
Use one of these outcomes when replying: True = active, False = inactive

>  <Compound>
COc1ccc(C2(Cl)c3ccccc3N(c3ccccc3)c3ccccc32)cc1

>  <Class assignment>
True

$$$$

# input Call for entry CC(C)(C)C(=O)OCOP(=O)(NCc1ccccc1)C1CCCN(O)C1=O (stereo not given) :
# output False

# input # fetch the recorded call for COc1cc(/C=C2\CC3C4CC=C5C[C@@H](OC(C)=O)CC[C@]5(C)C4CC[C@]3(C)C2=O)ccc1OCCN1CCCCC1 (stereo not given in full) here
# output False

# input Tell me the assay call for COc1ccc2ncn(-c3cc(O[C@H](C)c4ccccc4C(F)(F)F)c(C(N)=O)s3)c2c1 please.
# output True

----------
- System: OVCAR-4 ovarian
- Experiment summary: NCI tumour cell line growth inhibition, 48 h; in the data active means GI50 below about 0.43 µM; inactive means the rest
Output constraint: value belongs to YES for active, NO for inactive

Before answering, review these 3 worked examples.
>  <Compound>
CNC(=O)c1ccc(N2C(=S)N(c3cnc(C#N)c(C(F)(F)F)c3)C(=O)C23CCC3)cc1F

>  <Class assignment>
NO

$$$$
>  <Compound>
CC(=O)O[C@@H]1C2CCC3C(CC[C@@]4(C)C3CC[C@@H]4C(C)N(C)C)[C@@]2(C)CC[C@@H]1NC(=O)C=C(C)C (stereo not given in full)

>  <Class assignment>
NO

$$$$
>  <Compound>
C=C(c1ccc(OC)c(/C=C/C(=O)c2ccc3c(c2)OCO3)c1)c1cc(OC)c(OC)c(OC)c1

>  <Class assignment>
NO

$$$$

# input Each compound tested received a call. Report the one for CCc1ccc(Oc2c(-c3ccc(OCc4ccc(Cl)cc4)cc3O)n[nH]c2C(F)(F)F)cc1 .
# output NO

# input What did the test return for COc1cc(/C=C/c2cc(/C=C/c3ccc(O)c(OC)c3)n(C(=O)c3ccc(Cl)cc3)n2)ccc1O ?
# output NO

# input Assay outcome for COc1ccc2c(c1)C(=O)c1c-2n(CCCN(C)C)c(=O)c2ccccc12 : what was it?
# output NO

# input State the result this test recorded for CNC(=O)c1c(C)oc2cc(Oc3ncnc4cc(OC)c(OC)cc34)ccc12 .
# output NO

# input Field: outcome | Entry: OC(CNc1ccnc2cc(Cl)ccc12)CNc1ccnc2cc(Cl)ccc12
# output NO

# input Which outcome did this test record for the compound O=C1NC(=C(Cl)Cl)/C(=N/S(=O)(=O)N2CCCCC2)N1 ?
# output NO
